Where do the numbers come from? From patent US20080318954A1.

# tgt: CDK2/cyclin E (Homo sapiens, UniProt P24941)
# Construct: His6 (N)
# assay: CDK/cyclin kinase assay, CDK2/cyclin E
measured-metric: pKi
Schema: pKi number; meaning minus log10 of the concentration expressed in molar units.

Input: Request body: readout pKi, system CDK2/cyclin E (Homo sapiens, UniProt P24941), query Clc1ccc(Nc2nccc(-c3nccs3)n2)cn1 . Return the value.
Output: 5.26

* * *

# tgt: CDK4/cyclin D1 (Homo sapiens, UniProt P11802)
# Construct: His6 (N); Cyclin D1: E. coli, Sf9
# Sequence (P11802 whole entry): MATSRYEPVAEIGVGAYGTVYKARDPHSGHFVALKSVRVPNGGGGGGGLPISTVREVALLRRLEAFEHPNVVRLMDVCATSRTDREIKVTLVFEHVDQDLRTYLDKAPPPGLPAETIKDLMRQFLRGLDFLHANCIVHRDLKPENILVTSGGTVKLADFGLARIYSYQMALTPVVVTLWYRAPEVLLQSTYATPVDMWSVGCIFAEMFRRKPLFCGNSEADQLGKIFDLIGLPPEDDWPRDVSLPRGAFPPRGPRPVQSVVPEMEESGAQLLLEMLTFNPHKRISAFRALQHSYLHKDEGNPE
# Sequence (P24385 whole entry partner): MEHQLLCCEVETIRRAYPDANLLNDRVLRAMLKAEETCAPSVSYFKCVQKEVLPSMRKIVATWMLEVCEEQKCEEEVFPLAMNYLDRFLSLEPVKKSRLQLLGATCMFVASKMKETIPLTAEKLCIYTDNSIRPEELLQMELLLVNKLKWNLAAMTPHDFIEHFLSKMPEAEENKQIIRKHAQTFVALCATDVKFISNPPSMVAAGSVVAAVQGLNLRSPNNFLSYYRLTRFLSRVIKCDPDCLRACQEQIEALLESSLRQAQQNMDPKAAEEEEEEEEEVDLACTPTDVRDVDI
# assay: CDK/cyclin kinase assay, CDK4/cyclin D1
measured-metric: Ki

Input: Please give the measured Ki for this compound: Clc1ccc(Nc2nccc(-c3nccs3)n2)cn1 [Compound XIV]
Output: > 100 µM

* * *

# tgt: CDK2/cyclin A (Homo sapiens)
# Construct: His6 (N)
# assay: CDK/cyclin kinase assay, CDK2/cyclin A
pKi: −log10 of the molar value.
measured-metric: pKi

Input: Recorded pKi for Clc1ccc(Nc2nccc(-c3nccs3)n2)cn1 [Compound XIV] , please?
Output: < 4.30

* * *

# pIC50 per entry
# tgt: CDK1/cyclin B1 (Homo sapiens, UniProt P06493)
# Construct: His6 (N)
# Sequence (P06493 whole entry): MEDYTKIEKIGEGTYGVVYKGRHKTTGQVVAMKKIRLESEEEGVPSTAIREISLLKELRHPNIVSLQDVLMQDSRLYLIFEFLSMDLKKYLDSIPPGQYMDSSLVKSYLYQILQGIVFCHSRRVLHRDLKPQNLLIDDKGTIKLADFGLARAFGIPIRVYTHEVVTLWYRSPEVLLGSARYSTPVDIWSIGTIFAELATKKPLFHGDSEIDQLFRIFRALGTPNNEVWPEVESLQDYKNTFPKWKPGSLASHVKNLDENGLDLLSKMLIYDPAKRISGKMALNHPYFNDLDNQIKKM
# Sequence (P14635 whole entry partner): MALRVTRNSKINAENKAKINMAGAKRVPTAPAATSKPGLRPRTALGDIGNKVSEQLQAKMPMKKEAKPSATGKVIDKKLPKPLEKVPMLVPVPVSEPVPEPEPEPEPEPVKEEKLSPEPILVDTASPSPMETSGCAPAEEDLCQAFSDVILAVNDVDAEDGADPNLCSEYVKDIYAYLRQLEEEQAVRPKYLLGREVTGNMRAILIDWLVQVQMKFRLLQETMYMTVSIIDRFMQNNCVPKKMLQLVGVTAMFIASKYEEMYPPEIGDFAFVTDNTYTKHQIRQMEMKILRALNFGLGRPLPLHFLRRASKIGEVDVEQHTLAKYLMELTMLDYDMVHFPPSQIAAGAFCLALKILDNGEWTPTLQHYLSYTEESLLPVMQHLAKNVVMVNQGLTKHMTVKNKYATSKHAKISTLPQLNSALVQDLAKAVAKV
# assay: CDK/cyclin kinase assay, CDK1/cyclin B1
# assay-setup: read-out: Kinase inhibition IC50 CDK1/B1
pIC50: −log10 of the molar value.

Input: So what does the record say about pIC50 for COc1ccc(Nc2nccc(-c3nc(C)c(C)s3)n2)cn1 ?
Output: < 5.00

Input: Consider next the compound Clc1ccc(Nc2nccc(-c3nccs3)n2)cn1 in the same way.
Output: < 4.00

Input: Same question for Cc1nc(-c2ccnc(Nc3ccc(Cl)nc3)n2)sc1C please.
Output: < 5.00

Input: Try the compound COc1ccc(Nc2nccc(-c3nccs3)n2)cn1
Output: < 4.00

New cases:
Input: For the compound shown here, CCOC(=O)c1sc(-c2ccnc(Nc3ccc(Cl)cc3)n2)nc1O , give the reported pIC50.
Output: < 5.00

* * *

# tgt: CDK1/cyclin B1 (Homo sapiens)
# Construct: His6 (N); made in house; host or cells: Sf9 insect cells (baculovirus)
# assay: CDK/cyclin kinase assay, CDK1/cyclin B1
# Format: biochemical
# assay-setup: primary screening at 1 μM
measured-metric: inhibition at 1 µM

Completed entries (count: 3):
Input: Hi! What's the reported inhibition at 1 µM for Cc1sc(-c2ccnc(Nc3ccc(Cl)cc3)c2)nc1O [XXII] on CDK1/cyclin B1 (Homo sapiens)?
Output: < 50%

Input: Then Cc1nc(-c2ccnc(Nc3cccc(O)c3)n2)sc1C [IX] ?
Output: < 50%

Input: Again, but for c1cc(-c2nccs2)nc(Nc2ccc(N3CCCC3)nc2)n1 [XXIII]
Output: < 50%

Lab note: next compound to report on.
Input: What measured inhibition at 1 µM is associated with CCOC(=O)c1sc(-c2ccnc(Nc3ccc(Cl)nc3)n2)nc1O [XXIV] on CDK1/cyclin B1 (Homo sapiens)?
Output: < 50%

* * *

# tgt: GSK-3β (Oryctolagus cuniculus)
# Construct: isolated from a strain of E. coli that carries a clone expressing GSK-3β derived from a rabbit skeletal muscle cDNA library [34]
# Sequence (G1T8E2 1-432): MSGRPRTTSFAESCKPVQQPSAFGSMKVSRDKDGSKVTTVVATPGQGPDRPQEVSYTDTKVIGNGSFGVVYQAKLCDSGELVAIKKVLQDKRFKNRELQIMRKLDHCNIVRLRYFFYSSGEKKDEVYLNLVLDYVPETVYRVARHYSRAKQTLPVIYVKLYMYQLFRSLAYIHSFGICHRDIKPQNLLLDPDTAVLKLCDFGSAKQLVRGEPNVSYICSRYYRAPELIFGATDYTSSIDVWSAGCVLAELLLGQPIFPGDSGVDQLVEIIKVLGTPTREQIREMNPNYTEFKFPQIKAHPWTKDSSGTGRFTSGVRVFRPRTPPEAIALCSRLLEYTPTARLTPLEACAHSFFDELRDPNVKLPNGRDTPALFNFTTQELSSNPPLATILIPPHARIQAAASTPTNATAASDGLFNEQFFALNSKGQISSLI
# assay: GSK-3β kinase assay
# assay-setup: read-out: Ki GSK3
measured-metric: Ki (nM)
Output spec: scalar in nM, unitless text.

Input: Consider the compound Clc1ccc(Nc2nccc(-c3nccs3)n2)cn1 and give its measured Ki.
Output: 16
